assayed_target: T1, human TRAF1 TRAF domain (residues 220-416), containing the TRAF-N coiled-coil domain and the TRAF-C domain (human, UniProt Q13077 220-416)
T1 construct: TNF-receptor associated factor 1 (TRAF1), human, TRAF domain, amino acids 220-416, cloned into pET24a; Trimer in the crystal and in solution (SEC, MALS); also called wildtype TRAF1; not shown: His-tag, C-terminal, kept
T1 sequence (looked up): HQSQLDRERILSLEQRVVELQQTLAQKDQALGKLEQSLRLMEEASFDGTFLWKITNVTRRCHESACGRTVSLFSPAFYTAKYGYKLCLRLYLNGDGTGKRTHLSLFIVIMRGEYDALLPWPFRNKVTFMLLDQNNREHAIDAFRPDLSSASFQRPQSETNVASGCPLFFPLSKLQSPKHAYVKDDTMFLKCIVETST
assay_protocol: ITC; NanoITC; 1 mM TANK peptide injected into ~20 uM wildtype or mutant TRAF1 in the cell; PBS; 15 °C; 25 injections; single site model
experimental_setup: both partners purified
pKd: −log10 of the molar value.

{"binder": "SVPIQCTDKT (also called I-TRAF; source: synthetic peptide (Peptron, Dae-jeon, South Korea)) [TANK peptide (SVPIQCTDKT)]", "pKd": 4.87}
